# Target Of Assay: Recombinant STAT3 protein (STAT3(G127-I722)) (Homo sapiens)
# Construct: Recombinant STAT3 protein (STAT3(G127-I722))
# Sequence (P40763 127-722): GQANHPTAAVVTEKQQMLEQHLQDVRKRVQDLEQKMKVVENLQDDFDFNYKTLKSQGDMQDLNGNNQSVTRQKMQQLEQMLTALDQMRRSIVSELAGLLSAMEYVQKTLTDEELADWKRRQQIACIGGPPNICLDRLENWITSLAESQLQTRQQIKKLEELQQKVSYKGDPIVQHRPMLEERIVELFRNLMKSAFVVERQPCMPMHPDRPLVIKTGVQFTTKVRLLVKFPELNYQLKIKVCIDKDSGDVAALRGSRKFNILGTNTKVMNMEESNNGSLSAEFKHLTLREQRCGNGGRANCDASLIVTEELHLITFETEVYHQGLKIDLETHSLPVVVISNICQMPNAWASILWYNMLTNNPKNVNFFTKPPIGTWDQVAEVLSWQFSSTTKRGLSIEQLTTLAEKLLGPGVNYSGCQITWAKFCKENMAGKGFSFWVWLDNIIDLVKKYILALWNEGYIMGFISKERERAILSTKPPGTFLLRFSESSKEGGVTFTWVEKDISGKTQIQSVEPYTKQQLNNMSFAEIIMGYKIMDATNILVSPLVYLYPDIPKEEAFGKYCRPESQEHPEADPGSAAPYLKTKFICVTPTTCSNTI
# Protocol: STAT3 Fluorescence Polarization (FP) Assay
# Experimental Conditions: STAT3(G127-I722) 25 nM, probe 5-FAM-GpYLPQTV-NH2 2 nM, 45-minute incubation
pIC50: −log10 of the molar value.
Measured pIC50 of individual entries

>  <Compound>
CC(=O)N1CC[C@H]2CC[C@@H](C(=O)N(C)c3ccc(OCCN(C)C)cc3)N2C(=O)[C@@H](NC(=O)c2cc3cc(C(F)(F)P(=O)(O)O)ccc3[nH]2)C1

>  <pIC50>
5.00 to 6.00

$$$$
>  <Compound>
CC(=O)N1CC[C@H]2CC[C@@H](C(=O)N(C)CC(C)(C)O)N2C(=O)[C@@H](NC(=O)c2cc3cc(C(F)(F)P(=O)(O)O)ccc3s2)C1

>  <pIC50>
5.00 to 6.00

$$$$
>  <Compound>
CNC(=O)[C@@H]1CC[C@@H]2CCN(C(=O)c3n[nH]c4ccc(C)cc34)C[C@H](NC(=O)c3ccc4ccc(C(F)(F)P(=O)(O)O)cc4c3)C(=O)N21

>  <pIC50>
6.00 to 7.00

$$$$

Task: Specify reported pIC50 for the compound shown: CC(=O)N1CC[C@H]2CC[C@@H](C(=O)N(C)c3ccccc3)N2C(=O)[C@@H](NC(=O)c2cc3cc(C(C)P(=O)(O)O)ccc3s2)C1 (some centres unmarked)
Output: < 5.00

Task: Specify reported pIC50 for the compound shown: CC(=O)N1CC[C@H]2CC[C@@H](C(=O)N3CCC[C@H]3Cc3ccccc3)N2C(=O)[C@@H](NC(=O)c2cc3cc(C(F)(F)P(=O)(O)O)ccc3[nH]2)C1
Output: 5.00 to 6.00

Task: Specify reported pIC50 for the compound shown: N#CC1CN(C(=O)C2CCC3CCN(C(=O)OCc4ccccc4)CC(NC(=O)c4cc5cc(C(F)(F)P(=O)(O)O)ccc5s4)C(=O)N32)CC1c1ccccc1 (mixture of isomers)
Output: 6.00 to 7.00

Task: Specify reported pIC50 for the compound shown: CC(=O)N1CC[C@H]2CC[C@@H](C(=O)N3CC(C#N)C4(CCC4)C3)N2C(=O)[C@@H](NC(=O)c2cc3cc(C(F)(F)P(=O)(O)O)ccc3s2)C1 (some centres unmarked)
Output: 5.00 to 6.00

Task: Specify reported pIC50 for the compound shown: Cc1ccc2[nH]nc(C(=O)N3CC[C@H]4CC[C@@H](C(=O)N(C)C)N4C(=O)[C@@H](NC(=O)c4cc5cc(C(F)(F)P(=O)(O)O)ccc5s4)C3)c2c1
Output: 5.00 to 6.00

Task: Specify reported pIC50 for the compound shown: CC(=O)N1CC[C@H]2CC[C@@H](C(=O)N(C)[C@H]3CN(C(C)=O)C[C@@H]3O)N2C(=O)[C@@H](NC(=O)c2cc3cc(C(F)(F)P(=O)(O)O)ccc3s2)C1
Output: 5.00 to 6.00

Task: Specify reported pIC50 for the compound shown: CC(C)CN1CC[C@H]2CC[C@@H](C(=O)N3CC(C(=O)N4CCOCC4)C3)N2C(=O)[C@@H](NC(=O)c2cc3cc(C(F)(F)P(=O)(O)O)ccc3s2)C1
Output: 6.00 to 7.00

Task: Specify reported pIC50 for the compound shown: CC(=O)N1CC[C@H]2CC[C@@H](C(=O)Nc3ccc4ccccc4c3)N2C(=O)[C@@H](NC(=O)c2cc3cc(C(F)(F)P(=O)(O)O)ccc3s2)C1
Output: 6.00 to 7.00

meta.source: patent US20250179103A1
